Cited source: patent US20160114035A1

Target: DRB5*0101
Test: binding to purified HLA
pIC50: −log10 of the molar value.
QUANTITY KIND: pIC50

BINDER	pIC50
AAAHFVAAFTLKAEA [H4.F9.E14]	7.72
AAAEFVAAWTLHAAA [E4.H12]	7.32

A. AAAEFVAAYTLHAAA [E4.Y9.H12]
B. AAANFVAAYTLHAAA [N4.Y9.H12]
C. AAAHFVAANTLHAAA [H4.N9.H12]
Problem: Rank ascending by pIC50. Form entry: labels listed in requested order.
Result: A, C, B
